These data points were gathered from patent US6451836B1.

target: Phosphorylase (Rattus norvegicus)
Sequence (P09811 2-850): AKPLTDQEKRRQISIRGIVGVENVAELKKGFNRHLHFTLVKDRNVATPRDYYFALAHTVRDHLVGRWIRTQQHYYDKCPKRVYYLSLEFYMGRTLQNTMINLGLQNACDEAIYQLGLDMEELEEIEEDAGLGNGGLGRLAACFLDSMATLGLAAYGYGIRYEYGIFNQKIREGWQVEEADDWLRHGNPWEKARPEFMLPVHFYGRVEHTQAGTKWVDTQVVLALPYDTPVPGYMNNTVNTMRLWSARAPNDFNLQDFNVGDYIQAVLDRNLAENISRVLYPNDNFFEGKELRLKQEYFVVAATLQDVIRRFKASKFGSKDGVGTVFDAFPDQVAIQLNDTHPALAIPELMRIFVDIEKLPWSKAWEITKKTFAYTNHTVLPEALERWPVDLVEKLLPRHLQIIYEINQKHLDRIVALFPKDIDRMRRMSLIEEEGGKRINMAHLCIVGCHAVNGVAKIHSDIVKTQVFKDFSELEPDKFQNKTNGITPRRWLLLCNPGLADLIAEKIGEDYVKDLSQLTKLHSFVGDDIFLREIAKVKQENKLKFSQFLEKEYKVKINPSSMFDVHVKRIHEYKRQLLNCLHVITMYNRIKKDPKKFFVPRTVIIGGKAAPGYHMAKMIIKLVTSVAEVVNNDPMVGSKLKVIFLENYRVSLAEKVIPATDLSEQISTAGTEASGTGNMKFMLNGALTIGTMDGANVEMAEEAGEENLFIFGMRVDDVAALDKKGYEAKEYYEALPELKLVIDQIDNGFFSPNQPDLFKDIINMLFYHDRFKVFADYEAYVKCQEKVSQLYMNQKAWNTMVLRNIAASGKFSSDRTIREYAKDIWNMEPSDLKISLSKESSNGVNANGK

>  <CPD_SMILES>
OC[C@H]1NC[C@H](O)[C@@H](O)[C@@H]1O

>  <TESTED_ON>
Phosphorylase (Rattus norvegicus)

>  <IC50>
> 200 µM

$$$$
